# Method: gradient 5% acetonitrile 3 min, to 50% in 2 min, to 85% in 15 min, held 3 min, 100 µL/min
# Condition Parameters: column: Zorbax Extend-C18 2.1 x 50 mm; eluents: water / acetonitrile, 0.1% formic acid
Reported Property: RP-LC retention time (s)

Example entries begin here.
{"Molecule": "NC(=O)C1CCN(S(=O)(=O)c2cc(-c3noc(C4CCC4)n3)cs2)CC1", "Measurement Unit": "s", "Value Measured": 777}
{"Molecule": "CC(C)C(NC(=O)NCc1ccc(F)cc1)C(=O)N1CCc2ccccc21 (stereo unspecified)", "Measurement Unit": "s", "Value Measured": 917}
{"Molecule": "Cc1ccc(S(=O)(=O)N2CCC(C(=O)NCC(=O)N3CCCc4ccccc43)CC2)cc1", "Measurement Unit": "s", "Value Measured": 843}
{"Molecule": "COc1ccc(-c2cc(C(F)(F)F)n3nc(C(=O)O)c(Cl)c3n2)cc1OC", "Measurement Unit": "s", "Value Measured": 855}

1. Cn1cnc2c(C(=O)NCCC3=CCCCC3)nn(-c3ccc(Cl)cc3)c2c1=O
2. Cc1cc(C(=O)NCc2cccnc2)c2cc(Br)ccc2n1
Which numeric RP-LC retention time is bigger, that of 1 or that of 2 ? Return value: the label identifying the chosen record. 1
(1: 959 s, 2: 588 s)
